# Test system: PBMC
# Assay overview: Human PBMC IL-2 assay
# Type: cell-based
# Condition context: anti-CD3/CD28 stimulation overnight, IL-2 level
pEC50: −log10 of the molar value.
Note to self: values exactly at 7 are criterion met. So pEC50 at or above 7 is criterion met, below is criterion not met.

[
  {
    "Compound": "CC[C@H](c1ccc(C(F)(F)F)cc1)N1C[C@H]2COc3c(c4nc(C#N)ccc4n(C)c3=O)N2C[C@H]1C (stereo in doubt)",
    "Answer label": "criterion not met"
  },
  {
    "Compound": "CC[C@@H](c1ccc(Cl)cc1F)N1C[C@H]2COc3c(c4nc(C#N)ccc4n(C)c3=O)N2C[C@H]1C (stereo in doubt)",
    "Answer label": "criterion met"
  },
  {
    "Compound": "CC[C@@H]1CN2c3c(c(=O)n(C)c4ccc(C#N)nc34)OC[C@@H]2CN1[C@@H](CC)c1ccc(OC)cc1F (stereo in doubt)",
    "Answer label": "criterion met"
  },
  {
    "Compound": "CC[C@@H]1CN2c3c(c(=O)n(C)c4ccc(C#N)nc34)OC[C@@H]2CN1[C@H](CC)c1ccc(Cl)cc1 (stereo in doubt)",
    "Answer label": "criterion not met"
  }
]
